Biological target: bovine trypsin (bovine, UniProt P00760 24-246)
Sequence (P00760 24-246): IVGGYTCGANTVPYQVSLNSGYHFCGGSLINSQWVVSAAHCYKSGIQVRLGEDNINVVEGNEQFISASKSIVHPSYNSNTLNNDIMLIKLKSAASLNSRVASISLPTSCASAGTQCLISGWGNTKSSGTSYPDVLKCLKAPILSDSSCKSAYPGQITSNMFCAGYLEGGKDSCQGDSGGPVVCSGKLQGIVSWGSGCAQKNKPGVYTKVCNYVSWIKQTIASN
Assay: trypsin (50 nM) BApNA hydrolysis, OD405; peptide at 0.0488 µM
Bridge positions count the residues as written; N and C are the ends. Ends that are not written are not given here.
Each record here notes measured Residual trypsin activity (%).
Property label: Residual trypsin activity (%)

{"Binder": "CGRQTKSIPPICF (disulfide 1-12 (inferred), synthetic) [BT54]", "Property label": "Residual trypsin activity (%)", "Observed measurement": "65.8%"}
{"Binder": "CGRSTKSIPPICF (disulfide 1-12 (inferred), synthetic) [BT47]", "Property label": "Residual trypsin activity (%)", "Observed measurement": "57.4%"}
{"Binder": "CGRYTKSIPPICF (disulfide 1-12 (inferred), synthetic) [BT53]", "Property label": "Residual trypsin activity (%)", "Observed measurement": "87.4%"}
{"Binder": "CGRATKSIPPICF (disulfide 1-12 (inferred), synthetic) [BT9]", "Property label": "Residual trypsin activity (%)", "Observed measurement": "68.1%"}
